test: NCI Yeast Anticancer Drug Screen. Data for the bub3 strain (AID 167); details: S. cerevisiae bub3 mutant strain, at 50.0 µM, stronger effect = higher value
This is part of a sample that, as a whole, favours compounds with a hit. Of some 79,000 tested, about 15% had one in any assay.
MEASURED_PROPERTY: growth inhibition (%)

MOLECULAR_STRING	NUMERIC_RESULT
CCCCCCCCCCCCCCC[N+]1(CC)CCCCC1	90.5
CCCCC(=S)N1CCN(c2ccccc2)CC1	81.7
OC(C/C(=N\N=C(/CC(O)(C(F)(F)F)C(F)(F)F)c1ccccc1)c1ccccc1)(C(F)(F)F)C(F)(F)F	69
C#CC(=O)OCC#CCOC(=O)C#C	92.2
COc1ccc(-c2nnc(C)nc2-c2ccc(OC)cc2)cc1	81.6
COc1cccc(/C=C(\NC(=O)c2ccccc2)c2nc3ccccc3s2)c1	97.4
